Sourced from paper PMC6211260

- System: non-small cell lung cancer cell lines
- METHOD NOTES: NCI five-dose testing, subpanel mean
- Format: cell-based
- MEASUREMENT CONDITIONS: subpanel II: non-small cell lung cancer
EXPERIMENTAL READOUT: pIC50
Just so you know, pIC50 here is -log10 of the concentration in molar units; reply with that number alone.

(Q) Requested field: pIC50. Item: O=S(=O)(NCCNc1cc(-c2cn(-c3ccccc3)nc2-c2cccc(O)c2)ccn1)c1ccc(C(F)(F)F)cc1
(A) 5.52

(Q) Continue with O=S(=O)(NCCCNc1cc(-c2cn(-c3ccccc3)nc2-c2cccc(O)c2)ccn1)c1ccc(C(F)(F)F)cc1
(A) 5.67

(Q) Continue with COc1cccc(-c2nn(-c3ccccc3)cc2-c2ccnc(NCCCNS(=O)(=O)c3cccc(F)c3)c2)c1
(A) 5.30

(Q) Continue with CNC(=O)c1cc(Oc2ccc(NC(=O)Nc3ccc(Cl)c(C(F)(F)F)c3)cc2)ccn1 [Sorafenib, reference compound]
(A) 5.68

(Q) Continue with COc1cccc(-c2nn(-c3ccccc3)cc2-c2ccnc(NCCNS(=O)(=O)c3ccc(Cl)cc3)c2)c1
(A) 5.22

(Q) Continue with O=S(=O)(NCCCNc1cc(-c2cn(-c3ccccc3)nc2-c2cccc(O)c2)ccn1)c1ccc(F)cc1
(A) 5.41

(Q) Continue with COc1cccc(-c2nn(-c3ccccc3)cc2-c2ccnc(NCCCNS(=O)(=O)c3ccc(C(F)(F)F)cc3)c2)c1
(A) 5.20

* * *

- System: melanoma cell lines
- METHOD NOTES: NCI five-dose testing, subpanel mean
- Assay type: cell-based
- MEASUREMENT CONDITIONS: subpanel V: melanoma
- Method: Screening against the cancer cell lines was carried out at the National Cancer Institute (NCI, Bethesda, Maryland, USA) applying the standard protocol of the NCI[22].
Consider the following molecules; for each one, report its pIC50.
Just so you know, pIC50 here is -log10 of the concentration in molar units; reply with that number alone.

(Q) Requested field: pIC50. Item: O=S(=O)(NCCCNc1cc(-c2cn(-c3ccccc3)nc2-c2cccc(O)c2)ccn1)c1ccc(F)cc1
(A) 5.54

(Q) Continue with O=S(=O)(NCCCNc1cc(-c2cn(-c3ccccc3)nc2-c2cccc(O)c2)ccn1)c1ccc(C(F)(F)F)cc1
(A) 5.76

(Q) Continue with O=S(=O)(NCCNc1cc(-c2cn(-c3ccccc3)nc2-c2cccc(O)c2)ccn1)c1ccc(C(F)(F)F)cc1
(A) 5.63

(Q) Continue with COc1cccc(-c2nn(-c3ccccc3)cc2-c2ccnc(NCCCNS(=O)(=O)c3cccc(F)c3)c2)c1
(A) 5.38

(Q) Continue with COc1cccc(-c2nn(-c3ccccc3)cc2-c2ccnc(NCCNS(=O)(=O)c3ccc(C(F)(F)F)cc3)c2)c1
(A) 5.31

(Q) Continue with COc1cccc(-c2nn(-c3ccccc3)cc2-c2ccnc(NCCCNS(=O)(=O)c3ccc(C(F)(F)F)cc3)c2)c1
(A) 5.31

(Q) Continue with O=S(=O)(NCCNc1cc(-c2cn(-c3ccccc3)nc2-c2cccc(O)c2)ccn1)c1ccc(F)cc1
(A) 5.69

* * *

- Test system: SK-MEL-5 melanoma cell line
- METHOD NOTES: NCI five-dose testing
- Type: cell-based
- MEASUREMENT CONDITIONS: SK-MEL-5
EXPERIMENTAL READOUT: IC50 (nM)
// note: answer is a bare numeric in nM

(Q) Requested field: IC50. Item: COc1cccc(-c2nn(-c3ccccc3)cc2-c2ccnc(NCCNS(=O)(=O)c3ccc(Cl)cc3)c2)c1
(A) 1950

(Q) Continue with O=S(=O)(NCCNc1cc(-c2cn(-c3ccccc3)nc2-c2cccc(O)c2)ccn1)c1ccc(F)cc1
(A) 1730

(Q) Continue with O=S(=O)(NCCCNc1cc(-c2cn(-c3ccccc3)nc2-c2cccc(O)c2)ccn1)c1ccc(Cl)cc1
(A) 1230

(Q) Continue with O=S(=O)(NCCNc1cc(-c2cn(-c3ccccc3)nc2-c2cccc(O)c2)ccn1)c1ccc(Cl)cc1
(A) 2020

(Q) Continue with O=S(=O)(NCCNc1cc(-c2cn(-c3ccccc3)nc2-c2cccc(O)c2)ccn1)c1ccc(Br)cc1
(A) 1640

* * *

- Tested on: A498 renal cancer cell line
- METHOD NOTES: NCI five-dose testing
- Assay type: cell-based
- MEASUREMENT CONDITIONS: Homo sapiens, A498
EXPERIMENTAL READOUT: IC50 (nM)
// note: answer is a bare numeric in nM

(Q) Request - read-out IC50 | tested on A498 renal cancer cell line | compound O=S(=O)(NCCNc1cc(-c2cn(-c3ccccc3)nc2-c2cccc(O)c2)ccn1)c1ccc(C(F)(F)F)cc1
(A) 1710

(Q) Continue with O=S(=O)(NCCCNc1cc(-c2cn(-c3ccccc3)nc2-c2cccc(O)c2)ccn1)c1ccc(Br)cc1
(A) 380

(Q) Continue with O=S(=O)(NCCCNc1cc(-c2cn(-c3ccccc3)nc2-c2cccc(O)c2)ccn1)c1cccc2ccccc12
(A) 1100

(Q) Continue with O=S(=O)(NCCCNc1cc(-c2cn(-c3ccccc3)nc2-c2cccc(O)c2)ccn1)c1ccc(F)cc1
(A) 3520

* * *

- System: colon cancer cell lines
- METHOD NOTES: NCI five-dose testing, subpanel mean
- Type: cell-based
- MEASUREMENT CONDITIONS: subpanel III: colon cancer
Consider the following molecules; for each one, report its IC50.
// note: answer is a bare numeric in nM

(Q) Requested field: IC50. Item: COc1cccc(-c2nn(-c3ccccc3)cc2-c2ccnc(NCCCNS(=O)(=O)c3cccc(F)c3)c2)c1
(A) 4690

(Q) Continue with O=S(=O)(NCCCNc1cc(-c2cn(-c3ccccc3)nc2-c2cccc(O)c2)ccn1)c1ccc(F)cc1
(A) 2680

(Q) Continue with O=S(=O)(NCCNc1cc(-c2cn(-c3ccccc3)nc2-c2cccc(O)c2)ccn1)c1ccc(C(F)(F)F)cc1
(A) 2380

* * *

- Tested on: prostate cancer cell lines
- METHOD NOTES: NCI five-dose testing, subpanel mean
- Assay type: cell-based
- MEASUREMENT CONDITIONS: subpanel VIII: prostate cancer
Consider the following molecules; for each one, report its pIC50.
Just so you know, pIC50 here is -log10 of the concentration in molar units; reply with that number alone.

(Q) Requested field: pIC50. Item: O=S(=O)(NCCCNc1cc(-c2cn(-c3ccccc3)nc2-c2cccc(O)c2)ccn1)c1ccc(C(F)(F)F)cc1
(A) 5.55

(Q) Continue with O=S(=O)(NCCNc1cc(-c2cn(-c3ccccc3)nc2-c2cccc(O)c2)ccn1)c1ccc(Br)cc1
(A) 5.60

(Q) Continue with CNC(=O)c1cc(Oc2ccc(NC(=O)Nc3ccc(Cl)c(C(F)(F)F)c3)cc2)ccn1 [Sorafenib, reference compound]
(A) 5.50

(Q) Continue with O=S(=O)(NCCCNc1cc(-c2cn(-c3ccccc3)nc2-c2cccc(O)c2)ccn1)c1ccc(Cl)cc1
(A) 5.64

(Q) Continue with COc1cccc(-c2nn(-c3ccccc3)cc2-c2ccnc(NCCCNS(=O)(=O)c3ccc(C(F)(F)F)cc3)c2)c1
(A) 4.89

(Q) Continue with O=S(=O)(NCCNc1cc(-c2cn(-c3ccccc3)nc2-c2cccc(O)c2)ccn1)c1ccc(F)cc1
(A) 5.54

(Q) Continue with COc1cccc(-c2nn(-c3ccccc3)cc2-c2ccnc(NCCNS(=O)(=O)c3ccc(C(F)(F)F)cc3)c2)c1
(A) 4.89

* * *

- Test system: melanoma cell lines
- METHOD NOTES: NCI five-dose testing, subpanel mean
- Type: cell-based
- MEASUREMENT CONDITIONS: subpanel V: melanoma
Label fulfilled when IC50 is strictly below 2000 nM; otherwise label not fulfilled.

(Q) Is IC50 strictly under 2000 nM for the entry O=S(=O)(NCCNc1cc(-c2cn(-c3ccccc3)nc2-c2cccc(O)c2)ccn1)c1ccc(Cl)cc1 ?
(A) not fulfilled

(Q) Continue with CNC(=O)c1cc(Oc2ccc(NC(=O)Nc3ccc(Cl)c(C(F)(F)F)c3)cc2)ccn1 [Sorafenib, reference compound]
(A) not fulfilled

(Q) Continue with O=S(=O)(NCCCNc1cc(-c2cn(-c3ccccc3)nc2-c2cccc(O)c2)ccn1)c1ccc(Cl)cc1
(A) fulfilled

(Q) Continue with O=S(=O)(NCCCNc1cc(-c2cn(-c3ccccc3)nc2-c2cccc(O)c2)ccn1)c1ccc(Br)cc1
(A) fulfilled

(Q) Continue with COc1cccc(-c2nn(-c3ccccc3)cc2-c2ccnc(NCCNS(=O)(=O)c3ccc(Cl)cc3)c2)c1
(A) not fulfilled

(Q) Continue with O=S(=O)(NCCCNc1cc(-c2cn(-c3ccccc3)nc2-c2cccc(O)c2)ccn1)c1cccc2ccccc12
(A) not fulfilled

* * *

- Tested on: non-small cell lung cancer cell lines
- METHOD NOTES: NCI five-dose testing, subpanel mean
- Type: cell-based
- MEASUREMENT CONDITIONS: subpanel II: non-small cell lung cancer
Consider the following compounds; for each one, report its IC50.
// note: answer is a bare numeric in µM

(Q) Request - read-out IC50 | tested on non-small cell lung cancer cell lines | compound O=S(=O)(NCCCNc1cc(-c2cn(-c3ccccc3)nc2-c2cccc(O)c2)ccn1)c1cccc2ccccc12 [Compound 2q]
(A) 3.05

(Q) Continue with O=S(=O)(NCCCNc1cc(-c2cn(-c3ccccc3)nc2-c2cccc(O)c2)ccn1)c1ccc(Br)cc1 [Compound 2k]
(A) 1.96

(Q) Continue with O=S(=O)(NCCNc1cc(-c2cn(-c3ccccc3)nc2-c2cccc(O)c2)ccn1)c1ccc(F)cc1 [Compound 1m]
(A) 2.65

(Q) Continue with O=S(=O)(NCCCNc1cc(-c2cn(-c3ccccc3)nc2-c2cccc(O)c2)ccn1)c1ccc(Cl)cc1 [Compound 2l]
(A) 2.32
